Target: CLK2 kinase (Homo sapiens, UniProt P49760)
Sequence (P49760 whole entry): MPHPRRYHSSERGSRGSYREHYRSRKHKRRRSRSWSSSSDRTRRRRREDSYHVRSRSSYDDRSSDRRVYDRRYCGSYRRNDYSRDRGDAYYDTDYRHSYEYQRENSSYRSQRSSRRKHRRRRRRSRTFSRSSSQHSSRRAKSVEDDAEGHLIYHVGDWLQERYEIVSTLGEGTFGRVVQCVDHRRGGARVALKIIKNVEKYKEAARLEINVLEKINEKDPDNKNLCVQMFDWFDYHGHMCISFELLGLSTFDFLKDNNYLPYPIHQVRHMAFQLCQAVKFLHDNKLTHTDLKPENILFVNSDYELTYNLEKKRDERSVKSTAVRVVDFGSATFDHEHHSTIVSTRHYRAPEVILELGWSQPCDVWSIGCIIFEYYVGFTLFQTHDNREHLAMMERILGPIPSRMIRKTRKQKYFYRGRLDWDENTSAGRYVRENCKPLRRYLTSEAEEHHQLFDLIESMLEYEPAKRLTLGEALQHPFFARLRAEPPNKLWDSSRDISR
Assay: CLK2 kinase activity assay (Z-lyte FRET)
Settings: Z-lyte Ser/Thr 6 peptide, 60 μM ATP, 1 h at room temperature
Consider the following compounds and their measured pEC50 readings.
On this scale, pEC50 is minus log10 of a concentration expressed in M (mol/L).

Just so you know, measured pEC50 for `COc1ccc(NC(=O)c2n[nH]c3ccc(-c4cncc(CO)c4)cc23)cn1` came out at 9.00

`CC(C)CC(=O)Nc1cncc(-c2ccc3[nH]nc(-c4cc5c(N6CCN(C)CC6)ccnc5[nH]4)c3n2)c1` yielded pEC50 of 8.52

Looking up `Cn1cncc1-c1ccc2cnc(NC(=O)c3ccc(F)cc3)cc2c1` , I see its pEC50 listed as 9.00

Continuing:
Given item `CCNCc1cncc(-c2cc3c(-c4cc5c(-c6cccnc6)cncc5[nH]4)n[nH]c3cn2)c1` , the value recorded as its pEC50 is 8.70

Per the record, `CN1CCN(c2nccc3[nH]c(-c4n[nH]c5cnc(-c6cncc(NC(=O)c7ccccc7)c6)cc45)cc23)CC1` has pEC50 of 8.30

The recorded pEC50 for entry `O=C(Nc1ccc(OC(CO)CO)nc1)c1n[nH]c2ccc(-c3cncc(CN4CCCCC4)c3)cc12` equals 8.30

Field pEC50 (entry `CS(=O)(=O)c1ccc(NC(=O)c2n[nH]c3ccc(-c4cncc(CN5CCCCC5)c4)cc23)cn1` ) reads 9.00

# pEC50 of `CCCC(=O)Nc1cncc(-c2ccc3[nH]nc(-c4nc5c(-c6ccsc6)cncc5[nH]4)c3n2)c1` = 8.70

----------
Molecular target: CLK2 kinase (Homo sapiens)
Test: CLK2 kinase activity assay (Z-lyte FRET)
Details: Z-lyte Ser/Thr 6 peptide, 60 μM ATP, 1 h at room temperature
measured-parameter: log10 EC50 (log10 of the value in nM)
Short version: log10 scale, EC50, nM.

# example entries with known answers
// sample `CN(C)Cc1cncc(-c2cc3c(-c4nc5c(-c6cccc(F)c6)cccc5[nH]4)n[nH]c3cn2)c1` , its log10 EC50 was 0.60

Record `CC(C)CC(=O)Nc1cncc(-c2ccc3[nH]nc(-c4cc5c(-c6ccncc6)nccc5[nH]4)c3c2)c1` , field log10 EC50: 0.70

// log10 EC50 lookup, molecule = `FC1(F)CCN(Cc2cncc(-c3ccc4[nH]nc(-c5cc6c(-c7ccccn7)cccc6[nH]5)c4n3)c2)C1` , result: 0.70

Next:
What the record says about `Fc1cccc(-c2ccnc3[nH]c(-c4n[nH]c5ncc(-c6cn[nH]c6)cc45)nc23)c1` : log10 EC50 is 1.04

Record summary for `O=C(Nc1cncc(-c2cnc3[nH]nc(-c4nc5c(-c6cccc(F)c6)cncc5[nH]4)c3c2)c1)C1CC1` : reported log10 EC50 = 1.08

The recorded log10 EC50 for `Cn1cc(-c2cc3c(-c4nc5c(-c6cccc(F)c6)cncc5[nH]4)n[nH]c3cn2)cn1` is 0.30

Summary for this molecule, `O=C(Nc1cncc(-c2ccc3[nH]nc(-c4cc5ccncc5[nH]4)c3n2)c1)C1CCCC1` : log10 EC50 is 0.85

----------
Molecular target: CLK2 kinase (Homo sapiens, UniProt P49760)
Assay: CLK2 kinase activity assay (Z-lyte FRET);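 note: FRET read-out as coumarin to fluorescein emission ratio, unphosphorylated peptide as 0% and phosphorylated peptide as 100% controls, duplicate reactions, non-linear regression fit of dose-response curves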
Settings: Z-lyte Ser/Thr 6 peptide, 60 μM ATP, 1 h at room temperature
Recorded pEC50 for the following molecules
Note on units: pEC50 is unitless, being -log10 of a concentration expressed in mol/L.

# count of solved cases: 3
molecule `CS(=O)(=O)NCc1cc(F)cc(-c2cncc3[nH]c(-c4n[nH]c5ccc(-c6cncnc6)nc45)cc23)c1` , pEC50 observed: 8.70

Value of pEC50 reported for the molecule `CC(C)n1cc(C(=O)Nc2cc3cc(-c4cncn4C)ccc3cn2)cn1` is 9.00

Looking up `CN1CCN(c2ccnc3[nH]c(-c4n[nH]c5ccc(-c6cn[nH]c6)nc45)cc23)CC1` , I see its pEC50 listed as 8.52

Continuing:
Entry `COc1ccc(NC(=O)c2n[nH]cc2/C=C/c2cncc(CN3CCCCC3)c2)cn1` — recorded pEC50 = 7.59
